Target: STAT5a (Homo sapiens, UniProt P42229)
Sequence (P42229 1-794): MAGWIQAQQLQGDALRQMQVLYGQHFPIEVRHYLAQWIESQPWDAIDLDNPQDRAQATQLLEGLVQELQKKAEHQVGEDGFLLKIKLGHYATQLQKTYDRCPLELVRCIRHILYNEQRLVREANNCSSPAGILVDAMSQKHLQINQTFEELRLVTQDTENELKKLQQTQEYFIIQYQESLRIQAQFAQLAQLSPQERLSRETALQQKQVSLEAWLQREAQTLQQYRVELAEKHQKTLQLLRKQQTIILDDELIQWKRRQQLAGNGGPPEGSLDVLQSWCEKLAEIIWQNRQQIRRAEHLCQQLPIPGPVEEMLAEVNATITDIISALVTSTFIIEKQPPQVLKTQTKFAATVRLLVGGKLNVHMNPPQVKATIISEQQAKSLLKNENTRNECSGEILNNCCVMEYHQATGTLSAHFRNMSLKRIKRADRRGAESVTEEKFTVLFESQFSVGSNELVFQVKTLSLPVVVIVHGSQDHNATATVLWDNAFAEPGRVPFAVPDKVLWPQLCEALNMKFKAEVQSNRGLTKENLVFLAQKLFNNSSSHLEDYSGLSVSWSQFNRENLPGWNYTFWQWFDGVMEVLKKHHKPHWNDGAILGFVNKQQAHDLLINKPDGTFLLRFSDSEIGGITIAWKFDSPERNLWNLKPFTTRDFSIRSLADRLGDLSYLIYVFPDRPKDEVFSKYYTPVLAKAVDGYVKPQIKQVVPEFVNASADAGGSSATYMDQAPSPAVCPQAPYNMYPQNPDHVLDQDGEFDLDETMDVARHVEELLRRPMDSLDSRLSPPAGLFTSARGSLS
Measured pIC50, listed per entry.
# pIC50: negative log10 of molar concentration; output just the value

Sample answers from the record:
{"structure": "O=P(O)(O)Oc1ccc(-c2ccsc2)cc1", "pIC50": 4.39}
{"structure": "O=P(O)(O)Oc1ccc2c(c1)oc1ccccc12", "pIC50": 4.26}
{"structure": "O=P(O)(O)Oc1ccc2c(c1)Cc1ccccc1-2", "pIC50": 4.37}
{"structure": "O=P(O)(O)Oc1ccc(-c2cccc3ccccc23)cc1", "pIC50": 5.09}

# input Request the reported pIC50 associated with "Cc1cc(-c2ccc(OP(=O)(O)O)c(F)c2)cs1"
# output 4.55

# input # pIC50 lookup, item "O=P(O)(O)Oc1ccc(-c2nccs2)cc1"
# output 3.91

# input Could you share which pIC50 value was measured for "O=P(O)(O)Oc1ccc(-c2cccs2)cc1" ?
# output 4.83
